System: Escherichia coli TOP10
Assay: shrunken log2 fold change of peptide-encoding DNA abundance (4.5 h post-induction vs induction); higher = less antimicrobial activity (less host growth inhibition)
Details: time post-induction: 4.5 h; library: site-saturation at positions 5, 18, 19, 20
measurement_label: shrunken log2 fold change

INSERT INTO results (residue_string, measurement_label, observed_result) VALUES
  ('RRIRYRPPRLPRPRPRPGDRPRP', 'shrunken log2 fold change', 0.196),
  ('RRIRQRPPRLPRPRPRPVSKPRP', 'shrunken log2 fold change', -0.014),
  ('RRIRPRPPRLPRPRPRPHLQPRP', 'shrunken log2 fold change', 0.152),
  ('RRIRHRPPRLPRPRPRPWMCPRP', 'shrunken log2 fold change', -1.49),
  ('RRIRCRPPRLPRPRPRPWEIPRP', 'shrunken log2 fold change', 0.0501),
  ('RRIRCRPPRLPRPRPRPFTNPRP', 'shrunken log2 fold change', -0.685),
  ('RRIRQRPPRLPRPRPRPRHGPRP', 'shrunken log2 fold change', -0.203),
  ('RRIRVRPPRLPRPRPRPRHQPRP', 'shrunken log2 fold change', -0.138),
  ('RRIRCRPPRLPRPRPRPICVPRP', 'shrunken log2 fold change', 0.0832),
  ('RRIRLRPPRLPRPRPRPAQIPRP', 'shrunken log2 fold change', 0.214);

###

shrunken log2 fold change reference
System: Escherichia coli TOP10
Assay: shrunken log2 fold change of peptide-encoding DNA abundance (4.5 h post-induction vs induction); higher = less antimicrobial activity (less host growth inhibition)
Settings: time post-induction: 4.5 h; library: site-saturation at positions 5, 18, 19, 20
measurement_label: shrunken log2 fold change

INSERT INTO measurements (residue_string, tested_target, observed_result) VALUES
  ('RRIRHRPPRLPRPRPRPRSAPRP', 'Escherichia coli TOP10', 0.356),
  ('RRIRPRPPRLPRPRPRPVHHPRP', 'Escherichia coli TOP10', -0.218),
  ('RRIRWRPPRLPRPRPRPVTPPRP', 'Escherichia coli TOP10', 0.666),
  ('RRIRYRPPRLPRPRPRPYFGPRP', 'Escherichia coli TOP10', 0.0143);

###

Test system: Escherichia coli TOP10;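 further: peptides expressed intracellularly from a pBAD plasmid library in pooled LB shake-flask culture, induced with 0.3% L-arabinose, DNA abundance read by NGS, three biological replicates, DESeq2 with apeglm shrinkage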
Test: shrunken log2 fold change of peptide-encoding DNA abundance (4.5 h post-induction vs induction); higher = less antimicrobial activity (less host growth inhibition)
Details: time post-induction: 4.5 h; library: site-saturation at positions 5, 18, 19, 20
shrunken log2 fold change reference
measurement_label: shrunken log2 fold change

INSERT INTO results (residue_string, tested_target, observed_result) VALUES
  ('RRIRDRPPRLPRPRPRPYNVPRP', 'Escherichia coli TOP10', -0.0265),
  ('RRIRVRPPRLPRPRPRPFTYPRP', 'Escherichia coli TOP10', -0.105),
  ('RRIRERPPRLPRPRPRPDVVPRP', 'Escherichia coli TOP10', 0.015),
  ('RRIRGRPPRLPRPRPRPTRHPRP', 'Escherichia coli TOP10', 0.764),
  ('RRIRCRPPRLPRPRPRPQCAPRP', 'Escherichia coli TOP10', 0.166),
  ('RRIRFRPPRLPRPRPRPEIKPRP', 'Escherichia coli TOP10', 0.058),
  ('RRIRIRPPRLPRPRPRPAQSPRP', 'Escherichia coli TOP10', 0.227),
  ('RRIRYRPPRLPRPRPRPNWFPRP', 'Escherichia coli TOP10', -0.892),
  ('RRIRDRPPRLPRPRPRPETKPRP', 'Escherichia coli TOP10', 0.0655),
  ('RRIRSRPPRLPRPRPRPHNIPRP', 'Escherichia coli TOP10', -0.211),
  ('RRIRCRPPRLPRPRPRPKKKPRP', 'Escherichia coli TOP10', -0.0938),
  ('RRIRTRPPRLPRPRPRPIPMPRP', 'Escherichia coli TOP10', -0.38),
  ('RRIRKRPPRLPRPRPRPAHMPRP', 'Escherichia coli TOP10', 0.686),
  ('RRIRIRPPRLPRPRPRPVQGPRP', 'Escherichia coli TOP10', 0.552),
  ('RRIRERPPRLPRPRPRPNNEPRP', 'Escherichia coli TOP10', -0.525),
  ('RRIRYRPPRLPRPRPRPQAQPRP', 'Escherichia coli TOP10', 0.0442),
  ('RRIRQRPPRLPRPRPRPRCNPRP', 'Escherichia coli TOP10', -0.515),
  ('RRIRNRPPRLPRPRPRPRQKPRP', 'Escherichia coli TOP10', -0.0544),
  ('RRIRCRPPRLPRPRPRPMLGPRP', 'Escherichia coli TOP10', -0.0961),
  ('RRIRCRPPRLPRPRPRPLDWPRP', 'Escherichia coli TOP10', 0.285),
  ('RRIRARPPRLPRPRPRPWKYPRP', 'Escherichia coli TOP10', -0.408),
  ('RRIRWRPPRLPRPRPRPMIIPRP', 'Escherichia coli TOP10', -0.0264),
  ('RRIRIRPPRLPRPRPRPMLPPRP', 'Escherichia coli TOP10', -0.0228),
  ('RRIRKRPPRLPRPRPRPTNRPRP', 'Escherichia coli TOP10', -0.0262),
  ('RRIRLRPPRLPRPRPRPKACPRP', 'Escherichia coli TOP10', 0.16),
  ('RRIRERPPRLPRPRPRPGIHPRP', 'Escherichia coli TOP10', -0.502),
  ('RRIRERPPRLPRPRPRPEPHPRP', 'Escherichia coli TOP10', -0.122),
  ('RRIRDRPPRLPRPRPRPNVKPRP', 'Escherichia coli TOP10', -0.631),
  ('RRIRCRPPRLPRPRPRPHHSPRP', 'Escherichia coli TOP10', -0.201),
  ('RRIRHRPPRLPRPRPRPVISPRP', 'Escherichia coli TOP10', -0.199),
  ('RRIRKRPPRLPRPRPRPSMFPRP', 'Escherichia coli TOP10', -0.15),
  ('RRIRIRPPRLPRPRPRPHTCPRP', 'Escherichia coli TOP10', -0.0906),
  ('RRIRSRPPRLPRPRPRPNANPRP', 'Escherichia coli TOP10', 0.0564),
  ('RRIRYRPPRLPRPRPRPGPNPRP', 'Escherichia coli TOP10', 0.205),
  ('RRIRTRPPRLPRPRPRPAWHPRP', 'Escherichia coli TOP10', 0.282),
  ('RRIRCRPPRLPRPRPRPNDRPRP', 'Escherichia coli TOP10', -0.299),
  ('RRIRGRPPRLPRPRPRPYFKPRP', 'Escherichia coli TOP10', -0.366),
  ('RRIRERPPRLPRPRPRPYHEPRP', 'Escherichia coli TOP10', -3.17),
  ('RRIRHRPPRLPRPRPRPQHHPRP', 'Escherichia coli TOP10', -0.87),
  ('RRIRVRPPRLPRPRPRPSCNPRP', 'Escherichia coli TOP10', -0.509),
  ('RRIRTRPPRLPRPRPRPFYDPRP', 'Escherichia coli TOP10', -0.382),
  ('RRIRYRPPRLPRPRPRPAMDPRP', 'Escherichia coli TOP10', -0.256),
  ('RRIRGRPPRLPRPRPRPHPDPRP', 'Escherichia coli TOP10', 0.502),
  ('RRIRMRPPRLPRPRPRPMEMPRP', 'Escherichia coli TOP10', 0.515),
  ('RRIRFRPPRLPRPRPRPMHYPRP', 'Escherichia coli TOP10', -0.0476),
  ('RRIRSRPPRLPRPRPRPGRQPRP', 'Escherichia coli TOP10', -0.00462),
  ('RRIRFRPPRLPRPRPRPCDKPRP', 'Escherichia coli TOP10', -0.0972),
  ('RRIRIRPPRLPRPRPRPSIFPRP', 'Escherichia coli TOP10', -0.764),
  ('RRIRWRPPRLPRPRPRPGVKPRP', 'Escherichia coli TOP10', 0.505),
  ('RRIRYRPPRLPRPRPRPAHFPRP', 'Escherichia coli TOP10', 0.0784),
  ('RRIRWRPPRLPRPRPRPLQNPRP', 'Escherichia coli TOP10', -0.11),
  ('RRIRCRPPRLPRPRPRPGPHPRP', 'Escherichia coli TOP10', 0.0758),
  ('RRIRTRPPRLPRPRPRPCRMPRP', 'Escherichia coli TOP10', -0.261),
  ('RRIRNRPPRLPRPRPRPCAPPRP', 'Escherichia coli TOP10', -0.436),
  ('RRIRFRPPRLPRPRPRPMKYPRP', 'Escherichia coli TOP10', -0.664),
  ('RRIRIRPPRLPRPRPRPPRYPRP', 'Escherichia coli TOP10', -0.217),
  ('RRIRHRPPRLPRPRPRPWVFPRP', 'Escherichia coli TOP10', 0.139),
  ('RRIRFRPPRLPRPRPRPWVGPRP', 'Escherichia coli TOP10', -0.0721),
  ('RRIRNRPPRLPRPRPRPIRVPRP', 'Escherichia coli TOP10', -0.0394);

The measurements presented in this section are drawn from the supplement of paper PMC9112550.
